Reference source for all entries: patent US20210361600A1

# measurement-description: Intra-articular acute toxicity study in Crl:CD(SD) rat (toxicokinetics)
# experimental-context: male, Crl:CD(SD), rat, plasma, 2.1 ug
property-name: AUC(0-t) (ng·h/mL)
Quick note: give the figure in ng·h/mL, leave out the unit.

Value of measured AUC(0-t) for the entry COCCc1ccc(NC(=O)c2ccccc2NS(C)(=O)=O)cc1 : 12.1

----------
# measurement-description: in vivo
# experimental-context: male, Crl:CD(SD), rat, 200 ug/kg, Cmax
property-name: Cmax (ng/mL)
Supply the numeric figure in ng/mL, leaving out any unit text.

The measured Cmax associated with COCCc1ccc(NC(=O)c2ccccc2NS(C)(=O)=O)cc1 reads 33.9

----------
# measurement-description: Intra-articular acute toxicity study in the Beagle dog (toxicokinetics)
# experimental-context: male, beagle, dog, plasma, 200 μg/knee, AUC0-t, male dogs, single IA 200 μg/knee, individual animals 45M, 46M
property-name: AUC(0-t) (ng·h/mL)
Answer with a number only, understood to be in ng·h/mL.

Record COCCc1ccc(NC(=O)c2ccccc2NS(C)(=O)=O)cc1 , field AUC(0-t): 8.18

----------
# measurement-description: in vivo
# Set-up: species or system Crl:CD(SD) rat
# experimental-context: female, Crl:CD(SD), rat, iv, 0.25 mg/kg, t1/2
property-name: half-life (min)
All answers are understood in min, so give the number only.

molecule COCCc1ccc(NC(=O)c2ccccc2NS(C)(=O)=O)cc1 [Compound A] , half-life observed: 34.8

----------
# measurement-description: in vivo
# experimental-context: both, beagle, dog, iv
property-name: half-life

Summary for this compound, COCCc1ccc(NC(=O)c2ccccc2NS(C)(=O)=O)cc1 : half-life is 38.4 to 55.8 min

----------
# measurement-description: Intravenous acute toxicity study in Crl:CD(SD) rat (toxicokinetics)
# Assay type: in vivo
# experimental-context: Crl:CD(SD), rat, plasma; female rats, single IV 2.4 mg/kg, mean
property-name: Cmax (ng/mL)
Just the number please, in ng/mL, no unit attached.

Please fill in: Cmax reported for COCCc1ccc(NC(=O)c2ccccc2NS(C)(=O)=O)cc1 [Compound A] = 9020

----------
# measurement-description: in vivo
# experimental-context: male, beagle, dog, iv, 1.25 mg/kg, AUC0-t
property-name: AUC(0-t) (ng·h/mL)
Only the number, expressed in ng·h/mL, is required.

Lab book: AUC(0-t) of COCCc1ccc(NC(=O)c2ccccc2NS(C)(=O)=O)cc1 noted as 2600

----------
# measurement-description: in vivo
# experimental-context: female, Beagle, dog, iv, 0.6 mg/kg, AUC0-t
property-name: AUC(0-t) (ng·h/mL)
Numbers only here, please. The scale is ng·h/mL.

Query COCCc1ccc(NC(=O)c2ccccc2NS(C)(=O)=O)cc1 yields AUC(0-t) of 1230

----------
# measurement-description: in vivo
# experimental-context: female, Beagle, dog, iv, 0.125 mg/kg, Cmax
property-name: Cmax (ng/mL)
Unit ng/mL implied. Number only.

Cmax recorded for this molecule, COCCc1ccc(NC(=O)c2ccccc2NS(C)(=O)=O)cc1 , is 181

----------
# measurement-description: in vivo
# Set-up: species or system Crl:CD(SD) rat
# experimental-context: male, Crl:CD(SD), rat, iv, 0.25 mg/kg, t1/2
property-name: half-life (min)
Just the number please, in min, no unit attached.

Lab note: COCCc1ccc(NC(=O)c2ccccc2NS(C)(=O)=O)cc1 gave half-life of 23.4
